# ASSAY NOTES: Plasma levels of florfenicol / pharmacokinetic analysis in cattle after subcutaneous administration
# Assay type: in vivo
# CONDITION DETAILS: bovine, sc, 40 mg/kg, FIG. 1, six cattle, subcutaneous florfenicol solution, 40 mg per kg of body weight, read-out: Range of peak concentration (Cmax)
# Protocol: Twenty-four head of cattle were used in the study as described below and were administered the formulations of the present invention. Serial blood samples were drawn at time 0 prior to dosing, then at 0.5, 1, 3, 6, 9, 12, 24, 36, 48, 60 and 72 hours post injection. The animals received one of the following treatment regimens. The study was carried out in bovines of approximately 6 months of age or more that weigh about 125 kg or more. […]
READOUT: Cmax

Q: Could you tell me which Cmax is on file for CS(=O)(=O)c1ccc([C@@H](O)[C@@H](CF)NC(=O)C(Cl)Cl)cc1 ?
Result: 5080 to 7000 ng/mL

###

# ASSAY NOTES: Plasma levels of florfenicol / pharmacokinetic analysis in cattle after subcutaneous administration
# Assay type: in vivo
# CONDITION DETAILS: bovine, sc, 40 mg/kg, FIG. 1, six cattle, subcutaneous florfenicol solution, 40 mg per kg of body weight, read-out: Range of time to peak concentration (Tmax)
READOUT: Tmax

Q: Give the measured Tmax of CS(=O)(=O)c1ccc([C@@H](O)[C@@H](CF)NC(=O)C(Cl)Cl)cc1 [florfenicol] .
Result: 3 to 6 h

###

# ASSAY NOTES: Plasma levels of florfenicol / pharmacokinetic analysis in cattle after subcutaneous administration
# Format: in vivo
# CONDITION DETAILS: bovine, sc, 40 mg/kg, FIG. 1, six cattle, subcutaneous florfenicol solution, 40 mg per kg of body weight, read-out: Mean time to peak concentration (Tmax)
READOUT: Tmax
Returns: string containing the number followed by the unit.

Q: Need Tmax, item CS(=O)(=O)c1ccc([C@@H](O)[C@@H](CF)NC(=O)C(Cl)Cl)cc1
Result: 5.5 h

###

# ASSAY NOTES: Plasma levels of florfenicol / pharmacokinetic analysis in cattle after subcutaneous administration
# Format: in vivo
# CONDITION DETAILS: bovine, sc, 40 mg/kg, FIG. 1, six cattle, subcutaneous florfenicol solution, 40 mg per kg of body weight, read-out: Mean peak concentration (Cmax)
READOUT: Cmax (ng/mL)
One number for each entry, in ng/mL.

Q: Fill in: Cmax of CS(=O)(=O)c1ccc([C@@H](O)[C@@H](CF)NC(=O)C(Cl)Cl)cc1 [florfenicol] is ___
Result: 6370

###

# ASSAY NOTES: Plasma levels of florfenicol / pharmacokinetic analysis in cattle after subcutaneous administration
# Type: in vivo
# CONDITION DETAILS: bovine, sc, 40 mg/kg, FIG. 2, six cattle, subcutaneous florfenicol solution, 40 mg per kg of body weight, read-out: Mean time to peak concentration (Tmax)
READOUT: Tmax (h)
Give bare numbers, in h.

Q: Need Tmax of CS(=O)(=O)c1ccc([C@@H](O)[C@@H](CF)NC(=O)C(Cl)Cl)cc1 , thanks.
Result: 3.67

###

# ASSAY NOTES: Plasma levels of florfenicol / pharmacokinetic analysis in cattle after subcutaneous administration
# Format: in vivo
# CONDITION DETAILS: bovine, sc, 40 mg/kg, FIG. 2, six cattle, subcutaneous florfenicol solution, 40 mg per kg of body weight, read-out: Range of time to peak concentration (Tmax)
# Method: Twenty-four head of cattle were used in the study as described below and were administered the formulations of the present invention. Serial blood samples were drawn at time 0 prior to dosing, then at 0.5, 1, 3, 6, 9, 12, 24, 36, 48, 60 and 72 hours post injection. The animals received one of the following treatment regimens. The study was carried out in bovines of approximately 6 months of age or more that weigh about 125 kg or more. […]
READOUT: Tmax

Q: Fill blank: measured Tmax of the compound CS(=O)(=O)c1ccc([C@@H](O)[C@@H](CF)NC(=O)C(Cl)Cl)cc1 is ____.
Result: 1 to 9 h

Each recorded value in this set is attributed to patent US9084719B2.
